Target: T1, Ara h 6 (Arachis hypogaea allergen 6) (Arachis hypogaea, UniProt Q647G9 22-145)
T1 construct: Peanut allergen; also called Ara h 6.0101; nAra h 6
T1 sequence: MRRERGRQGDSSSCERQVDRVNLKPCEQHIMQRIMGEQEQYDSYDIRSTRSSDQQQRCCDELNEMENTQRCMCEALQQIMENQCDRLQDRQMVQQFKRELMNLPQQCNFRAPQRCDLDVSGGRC
Test: ELISA, Fab titration on coated Ara h 6
Value type: binding result

Binder	Endpoint result
MY006-15E3 Fab Hg Lg (Fab, V domains shown, Germlined variant, IgG1-Fab format) VH: EVQLVESGGGLVQPGGSLRLSCAASGFKFSTFYMTWIRQAPGKGLEWVANIKQDGSEKDYLDSVRGRFTISRDNAKSSLYLQMNSLRAEDTAVYYCTRNGLQDSYSGDFFDHWGQGTLVTVSS VL: QSVLTQPPSVSAAPGQKVTISCSGTGSNIGHNYVSWYQQLPGTAPKLLIFDNTKRPSGIPDRFSGSKSGSSATLGITGLQTGDEADYFCATWDADLSAVLFGGGTKLTVL	binds
MY006-15E3 Fab Hf Lg (Fab, V domains shown, Germlined variant, IgG1-Fab format; also called 15E3: Hf/Lg) VH: EVQLVESGGGLVQPGGSLRLSCAASGFKFSTFYMTWVRQAPGKGLEWVANIKQDGSEKDYLDSVRGRFTISRDNAKNSLYLQMNSLRAEDTAVYYCTRNGLQDSYSGDFFDHWGQGTLVTVSS VL: QSVLTQPPSVSAAPGQKVTISCSGTGSNIGHNYVSWYQQLPGTAPKLLIFDNTKRPSGIPDRFSGSKSGSSATLGITGLQTGDEADYFCATWDADLSAVLFGGGTKLTVL	binds
MY006-2F8 Fab Lf (Fab, V domains shown, Germlined variant, IgG1-Fab format; also called 2F8 Lf) VH: EVQLVESGGGLVKPGGSLRLSCAASGFIFSDYNMNWVRQAPGKGLEWVSSITRSSRTIYYADSVKGRFTISRDNAKNSLHLQMNSLRDADTAVYYCAREDFDVSTGPYYMDVWGNGTTVIVSS VL: EIVLTQSPGTLSLSPGERATLSCRASQSVSNMFLVWYQQKPGQAPRLLIYGASTRATGIPDRFSGSGSGTDFTLTISRLEPEDFAVYYCQQNGNSPYTFGQGTKLEIK	binds

Provenance of the data: patent US20250320282A1
